Reported IC50 values are given for each entry in this list.
Tested on: chloroquine (CQ)-resistant P. falciparum (K1 strain)
Experiment: Antimalarial activity, 3H-hypoxanthine uptake inhibition, K1 strain
Assay type: cell-based, Plasmodium falciparum
Settings: Plasmodium falciparum, K1, pure compounds; P. falciparum K1 strain; mean ± S.D. of three determinations; read-out: IC50 K1
Only the number, expressed in µM, is required.

Look over these answered cases.
1) COc1c(-c2ccc(O)c(O)c2)oc2cc(O)cc(OC)c2c1=O [Compound 4, 3,5-dimethoxy quercetin] : 44
2) O=c1c(O[C@@H]2O[C@H](CO)[C@H](O)[C@H](O)[C@H]2O)c(-c2ccc(O)c(O)c2)oc2cc(O)cc(O)c12 [Compound 14, quercetin-3-O-β-D-galactopyranoside] : 48.9
3) O=c1c(O)c(-c2ccc(O)c(O)c2)oc2cc(O)cc(O)c12 [Compound 6, quercetin] : 28.5

API: the following record is the query input.
INPUT: # return recorded IC50 for entry Oc1cc(O)c2c(c1)CCc1cc(O)c(O)cc1-2 [Compound 10]
OUTPUT: 58.3

----------
Reported pIC50 values are given for each entry in this list.
System: chloroquine (CQ)-resistant P. falciparum (K1 strain)
Test: Antimalarial activity, 3H-hypoxanthine uptake inhibition, K1 strain
Format: cell-based, Plasmodium falciparum
Conditions: Plasmodium falciparum, K1, pure compounds; P. falciparum K1 strain; mean ± S.D. of three determinations; read-out: IC50 K1
pIC50: −log10 of the molar value.

1. CC(=O)OC1CC2(O)C(=O)OC(c3ccoc3)CC2(C)C2CC3CC(C(=O)O3)C12 (centres unmarked) [Compound 2] : < 4.10

INPUT: Please tell me the measured pIC50 for CCC(C(C)C)C(C)CC(C)C1CCC2C3C=CC4CC(OC5OC(CO)C(O)C(O)C5O)CCC4(C)C3CCC12C (centres unmarked) [Compound 3] ; system: chloroquine (CQ)-resistant P. falciparum (K1 strain).
OUTPUT: < 4.10

INPUT: Please tell me the measured pIC50 for CC(=O)OC1CC2C(=O)OC(c3ccoc3)CC2(C)C2CC3CC(C(=O)O3)C12 (centres unmarked) [Compound 1, 8-epidiosbulbin E acetate] ; system: chloroquine (CQ)-resistant P. falciparum (K1 strain).
OUTPUT: < 4.10

INPUT: Please tell me the measured pIC50 for O=c1c(O)c(-c2cc(O)c(O)c(O)c2)oc2cc(O)cc(O)c12 [Compound 11, myricetin] ; system: chloroquine (CQ)-resistant P. falciparum (K1 strain).
OUTPUT: < 4.10

INPUT: Please tell me the measured pIC50 for Oc1cc(O)c2c(c1)O[C@H](c1ccc(O)c(O)c1)[C@@H](O)C2 [Compound 5, (+)-catechin] ; system: chloroquine (CQ)-resistant P. falciparum (K1 strain).
OUTPUT: < 4.10
